Can you tell me normalized growth for the items I'm about to list?
# ASSAY METHOD TEXT: chemical genetic growth profiling, strain panel (AID 1159580);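 also: tested at 20 µM; growth read once vehicle control cultures reached saturation at 30 °C; 1 = growth at the plate median or of vehicle wells; lower values mean less growth of the strain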
# RECORDED CONDITIONS: S. cerevisiae deletion strains, growth OD, locus YMR223W, strain ubp8, active compounds read low
Screen size: about 5,500 compounds; about 2,000 (36%) were called active. Another 18% or so got no clear call; they are omitted. This is one part of the list.
Numbers only.

{"MOLECULE": "C[C@@H]1CC[C@@]23CCC4(C)[C@@](C=CC5[C@@]6(C)CCC(=O)C(C)(C)C6CC[C@]54C)(OC2=O)C3[C@H]1C (stereo partly specified)", "normalized growth": 1.04}
{"MOLECULE": "COc1ccc(-c2cc(=O)c3c(O)cc(O)cc3o2)cc1O", "normalized growth": 0.993}
{"MOLECULE": "NCCCN", "normalized growth": 1.01}
{"MOLECULE": "COc1cc(C)c2c(=O)c3c(O)cc(O)cc3oc2c1", "normalized growth": 0.884}
{"MOLECULE": "CC[C@H]1CN2CCC1C[C@@H]2[C@@H](O)c1ccnc2ccc(OC)cc12 (stereo partly specified)", "normalized growth": 0.996}
{"MOLECULE": "CC(=O)[C@@]1(O)CCC2C3C=C(Cl)C4=CC(=O)[C@@H]5CC5[C@]4(C)C3CC[C@@]21C (stereo partly specified)", "normalized growth": 1.01}
{"MOLECULE": "CN(C)C(=O)C(CCN1CCC(O)(c2ccc(Cl)cc2)CC1)(c1ccccc1)c1ccccc1", "normalized growth": 0.992}
{"MOLECULE": "COc1cc(C)c2c(=O)c3c(O)cc(OC)cc3oc2c1", "normalized growth": 0.98}

I would be grateful if you could provide normalized growth for each of the following entries.
1. Nc1ccc(S(=O)(=O)Nc2ncccn2)cc1
2. CCC(=O)OCC(=O)C1(OC(=O)CC)C(C)CC2C3CCC4=CC(=O)C=CC4(C)C3(Cl)C(O)CC21C (stereo unspecified)
3. NC(=O)c1ccc([N+](=O)[O-])cc1Cl

1. 0.976
2. 1
3. 0.988

* * *

# ASSAY METHOD TEXT: chemical genetic growth profiling, strain panel (AID 1159580);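 also: tested at 20 µM; growth read once vehicle control cultures reached saturation at 30 °C; 1 = growth at the plate median or of vehicle wells; lower values mean less growth of the strain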
# RECORDED CONDITIONS: S. cerevisiae deletion strains, growth OD, locus YEL061C, strain CIN8, active compounds read low
In all, about 5,500 compounds went through this assay and about 2,000 (36%) were called active. Roughly 18% stayed inconclusive and do not appear here. The list shows a part of the results.
MEASURE: normalized growth
Give bare numbers.

Examples from the recorded data:
{"COMPOUND": "CC(=O)OC1CC[C@@]2(C)C(CCC3C2CC[C@]2(C)C(C4=CC(=O)OC4)C(OC(C)=O)CC32O)C1 (stereo partly drawn)", "normalized growth": 0.997}
{"COMPOUND": "C[C@]12CCC3C(CC[C@]4(O)C[C@@H](O)CC[C@]34C=O)[C@@]1(O)CCC2C1=CC(=O)OC1 (stereo partly drawn)", "normalized growth": 0.986}

Attention now turns to another entry.
compound C[C@H]1OC(O[C@H]2[C@@H](O)CC(O[C@H]3[C@@H](O)C[C@H](O[C@H]4CC[C@]5(C)C6CC[C@]7(C)[C@@H](C8=CC(=O)OC8)[C@@H](O)C[C@]7(O)[C@@H]6CC[C@@H]5C4)O[C@@H]3C)O[C@@H]2C)C[C@H](O)C1O (stereo partly drawn) , normalized growth observed: 0.999

Cited source for all entries: PubChem BioAssay AID1159580
